- Test Protocol: Luminescence activity assay of purified Gaussia luciferase mutants on coelenterazine derivative ZS2
- Assay type: biochemical
- Set-up: key: ratio of mutant luminescence intensity to wild-type Gaussia luciferase
- Cond: Substrate ZS2 (Table 16)
Quantity Kind: Activity of mutant relative to wild-type Gaussia luciferase without the signal peptide
Answers are plain numbers.

| Molecule | Endpoint Result |
| --- | --- |
| H79K P84K E102K S103I V138E: Gaussia luciferase mutant (protein, SIGNAL (1)..(17), Gaussia luciferase mutant) MGVKVLFALICIAVAEAKPTENNEDFNIVAVASNFATTDLDADRGKLPGKKLPLEVLKEMEANARKAGCTRGCLICLSKIKCTKKMKKFIPGRCHTYEGDKKIAQGGIGEAIVDIPEIPGFKDLEPMEQFIAQVDLCEDCTTGCLKGLANVQCSDLLKKWLPQRCATFASKIQGQVDKIKGAGGD | 0.452 |

Consider now this further molecule.
stdin: For the molecule shown here, E102K S103T A104G E110G V138D: Gaussia luciferase mutant (protein, SIGNAL (1)..(17), Gaussia luciferase mutant) MGVKVLFALICIAVAEAKPTENNEDFNIVAVASNFATTDLDADRGKLPGKKLPLEVLKEMEANARKAGCTRGCLICLSHIKCTPKMKKFIPGRCHTYEGDKKTGQGGIGGAIVDIPEIPGFKDLEPMEQFIAQVDLCDDCTTGCLKGLANVQCSDLLKKWLPQRCATFASKIQGQVDKIKGAGGD , give the reported Activity of mutant relative to wild-type Gaussia luciferase without the signal peptide.
stdout: 0.065
